RP-LC retention time values for the compounds below.
# procedureDetails: gradient 5% acetonitrile 3 min, to 50% in 2 min, to 85% in 15 min, held 3 min, 100 µL/min
# statedConditions: column: Zorbax Extend-C18 2.1 x 50 mm; eluents: water / acetonitrile, 0.1% formic acid
Just the number please, in s, no unit attached.

A selection of reference data follows.
compound: O=C(NCCCNc1nc(Nc2cccc(NC(=O)N3CCCC3)c2)ncc1I)c1cccs1
measurementUnit: s
RP-LC retention time: 691
//
compound: CCOc1ccccc1NC(=O)N1CCC2(C1)C(=O)N(C)c1ccc(OC)cc12 (stereo not drawn)
measurementUnit: s
RP-LC retention time: 882

# compound CCN(CC)C(=O)N1CC(n2cc(C(=O)N3CCCC3)nn2)C1 ; its RP-LC retention time = 646
